Cited source: patent US12403144B2

experimentalSystem: untagged HECT of ITCH (E3 ligase) (Homo sapiens)
Construct: using untagged HECT of ITCH (E3 ligase) instead of untagged HECT of NEDD4 wild-type (WT) (E3 ligase); made in house
Sequence (Q96J02 569-903 limits assumed): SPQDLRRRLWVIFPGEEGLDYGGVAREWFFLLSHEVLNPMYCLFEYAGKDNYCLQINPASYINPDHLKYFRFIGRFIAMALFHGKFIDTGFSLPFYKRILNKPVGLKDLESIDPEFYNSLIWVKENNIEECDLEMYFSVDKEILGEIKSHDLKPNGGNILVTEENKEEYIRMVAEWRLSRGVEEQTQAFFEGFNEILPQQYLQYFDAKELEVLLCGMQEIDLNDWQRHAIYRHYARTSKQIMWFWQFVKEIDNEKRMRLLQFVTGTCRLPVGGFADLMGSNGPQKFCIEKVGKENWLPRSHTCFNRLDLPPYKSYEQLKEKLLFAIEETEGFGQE
assayProcedure: In vitro ubiquitination assay TR-FRET based, ITCH
Format: biochemical
testSettings: read-out: percentage of inhibition (ITCH)
Counter-ions that a name gives are not always drawn.
Reported inhibition at 11 µM by item:

Please review the entries below; each comes with its answer.
Param item = C#CCON(C)C(=O)/C=C/CN(C)CCCCN1c2ccccc2CCc2ccc(Cl)cc21 [Compound 77, maleate] ; retrieve measured inhibition at 11 µM. < 5%

Return reported inhibition at 11 µM; argument: CCOC(=O)/C=C/CNCCCCN1c2cc(Cl)ccc2C(=O)N(C)c2ccccc21 [Compound 42, maleate] < 15%

Which inhibition at 11 µM value belongs to CONC(=O)/C=C/CNCCCCN1c2ccccc2CCc2ccc(Cl)cc21 [Compound 78, maleate] ? < 20%

Query (compound): CCOC(=O)/C=C/CNCCCCN1c2ccccc2C(=O)N(C)c2ccc(Cl)cc21 [Compound 29, maleate] ; field requested: inhibition at 11 µM < 5%

# get_value(readout='inhibition at 11 µM', item= CCOC(=O)/C=C/CNCCCCN1c2ccccc2CCc2ccc(Cl)cc21.O=C(O)/C=C\C(=O)O [Compound 12, maleate] ) < 5%

Switching to the query record.
// query inhibition at 11 µM value for entry CCOC(=O)/C=C/CCNCCCN1c2ccccc2CCc2ccc(Cl)cc21 [Compound 5, maleate] < 15%
